Assay: Pharmacokinetic parameters after oral or intravenous administration
Type: in vivo
Details: rat, plasma; rats, Intravenous (IV), 1 mg/kg
quantity_kind: half-life (min)
Reply numerically in min, unit not repeated.

Request: Looking for the measured half-life of O=C(Cc1c[nH]c2ccc(Cl)cc12)Nc1nc2ccccc2s1 [Comparative Example 1, reference compound] , can you help?
Result: 48

Request: Looking for the measured half-life of O=C(Cc1c[nH]c2ccc(Cl)cc12)Nc1nc2ccc(N3CCOCC3)cc2s1 [Compound 6] , can you help?
Result: 62.4

* * *

Experiment: Pharmacokinetic parameters after oral or intravenous administration
Type: in vivo
Conditions: rat, plasma; rats, Oral (PO), 10 mg/kg
Field: half-life. Provide a value for each of the compounds that follow.

Request: Looking for the measured half-life of O=C(Cc1c[nH]c2ccc(Cl)cc12)Nc1nc2ccccc2s1 [Comparative Example 1, reference compound] , can you help?
Result: 0.9 h

Request: Looking for the measured half-life of O=C(Cc1c[nH]c2ccc(Cl)cc12)Nc1nc2ccc(N3CCOCC3)cc2s1 , can you help?
Result: 2 h

Where these numbers come from: patent US12187717B2
